Field: pEC50. Provide a value for each of the binders that follow.
TARGET: T1, human SLC34A2 (human, UniProt O95436 1-690)
T1 construct: whole, on cells; also called human solute carrier 34 A2; NaPi2b
T1 sequence (looked up): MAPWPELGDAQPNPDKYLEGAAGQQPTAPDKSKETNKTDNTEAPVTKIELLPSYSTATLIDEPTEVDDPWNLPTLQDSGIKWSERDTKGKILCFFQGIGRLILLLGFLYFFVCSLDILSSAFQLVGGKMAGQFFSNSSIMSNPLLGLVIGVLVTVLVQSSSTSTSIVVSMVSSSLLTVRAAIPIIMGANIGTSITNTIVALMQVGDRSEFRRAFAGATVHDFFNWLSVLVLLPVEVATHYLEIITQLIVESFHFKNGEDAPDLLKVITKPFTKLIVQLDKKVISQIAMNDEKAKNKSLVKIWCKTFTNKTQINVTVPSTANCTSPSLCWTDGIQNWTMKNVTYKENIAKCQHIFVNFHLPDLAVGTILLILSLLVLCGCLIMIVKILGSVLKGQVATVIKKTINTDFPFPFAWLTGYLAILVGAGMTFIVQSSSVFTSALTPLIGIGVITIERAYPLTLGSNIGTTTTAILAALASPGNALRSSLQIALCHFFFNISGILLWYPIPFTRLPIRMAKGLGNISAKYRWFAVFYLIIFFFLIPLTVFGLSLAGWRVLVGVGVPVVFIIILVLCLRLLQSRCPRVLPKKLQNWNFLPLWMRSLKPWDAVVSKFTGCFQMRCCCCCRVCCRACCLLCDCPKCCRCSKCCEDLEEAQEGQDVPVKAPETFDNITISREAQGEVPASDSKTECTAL
PROTOCOL: FACS, OVCAR3 cells
Just so you know, pEC50 here is -log10 of the concentration in molar units; reply with that number alone.

Task item: Retrieve pEC50 measured for xi63A11D5B4 hIgG1 (antibody, V domains shown, chimeric, hIgG1) VH: QVQLQQPGAELVKPGASVKMSCRTSGYTFITYNMHWVKQTPGQGREWIGAIYPGNGDTSYNQKFKGKATLTADKSSSTAYMQLNSLTSEDSAVYYCSISTIITTGAVDYWGQGTSVTVAS VL: DIVMTQSHKFMSTSVGDRVSITCKASQDVGTAVAWYQQKAGQSPKLLIYWTSTRHTGVPDRFTGSGSGTDFTLIIRSLQSEDLADYFCQQYSRIPLTFGSGTKLEIK and print it.
Reply: 8.04

Task item: Retrieve pEC50 measured for 63A11D5B4 VH_P1/VL hIgG1 (antibody, V domains shown, PTM-derisked chimeric, hIgG1; that P1 is the SG version follows from the humanized .p1 chains; also called 63A11D5B4.p1 hIgG1) VH: QVQLQQPGAELVKPGASVKMSCRTSGYTFITYNMHWVKQTPGQGREWIGAIYPGSGDTSYNQKFKGKATLTADKSSSTAYMQLNSLTSEDSAVYYCSISTIITTGAVDYWGQGTSVTVAS VL: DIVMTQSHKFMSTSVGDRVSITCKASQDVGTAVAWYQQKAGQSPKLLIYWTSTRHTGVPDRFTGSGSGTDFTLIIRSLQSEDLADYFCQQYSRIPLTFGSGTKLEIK and print it.
Reply: 8.12

Task item: Retrieve pEC50 measured for xi91C9F1 hIgG1 (antibody, V domains shown, chimeric, hIgG1) VH: EVQLQQSGPELVKPGTSVKISCKTSGFFFTEYIIHWVKQSHGRSLEWIGGIIPNNGVTNYKQNFRGKAALTADKSSNTAYMELRSLTSEDSAVYYCARWRNGYYSAMDSWGQGTSVTVSS VL: DIVVTQSHKFMSTSLGDRVSITCTASQDVGTAVAWYQQKPGHSPKLLIYWASTRHTGVPERFTGSGSGTDFTLTITNVQSEDLADYFCQQYRTSPLTFGVGTKLELK and print it.
Reply: 8.80

Task item: Retrieve pEC50 measured for 91C9F1.p1 hIgG1 (antibody, V domains shown, PTM-derisked chimeric, hIgG1; also called 91C9F1.pl hIgG1) VH: EVQLQQSGPELVKPGTSVKISCKTSGFFFTEYIIHWVKQSHGRSLEWIGGIIPNNDVTNYKQNFRGKAALTADKSSNTAYMELRSLTSEDSAVYYCARWRNAYYSAMDSWGQGTSVTVSS VL: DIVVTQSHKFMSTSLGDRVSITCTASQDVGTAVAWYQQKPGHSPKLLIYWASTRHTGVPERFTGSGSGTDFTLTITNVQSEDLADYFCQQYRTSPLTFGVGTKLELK and print it.
Reply: 9.00

Task item: Retrieve pEC50 measured for xi90G10H7 hIgG1 (antibody, V domains shown, chimeric, hIgG1) VH: QVQLQQPGAVLVKPGASVKMSCKASGYTFTSYIIHWVKQTPGQGLEWVGAIYPGNGDASSIQKFKGKATLTVDKSSSTAYMQLSSLTSADSAVYYCARGHYYGSAAWFAYWGQGTLVTVSA VL: DILLTQSPAILSVSPGERVSFSCRASQNIGTGIHWYQQRTNGSLRLLIKYASESISGIPSRFSGSGSGTDFTLSINSVESEDIADYYCQQSNSWPLTFGAGTKLELK and print it.
Reply: 8.41
